Entry source: patent US11753373B2

Assay type: in vitro ADME, Human
conditions_used: extraction ratio, compound at 1 uM, human liver microsomes 0.5 mg/mL
Collected Liver Microsomal Stability (ER) Human values appear next to each entry.
Please reply with the value in numeric form only.

Cc1cccc2[nH]c(C(=O)N[C@@H](CC(C)C)C(=O)N[C@H](C=O)C[C@@H]3CCNC3=O)cc12 :: 0.21

# input for lookup
Exercise: I'd like to know its Liver Microsomal Stability (ER) Human. The molecule in question is CC(C)[C@@H](C#N)NC(=O)[C@@H]1[C@@H]2[C@H](CN1C(=O)[C@@H](NC(=O)C(F)(F)F)C1CC1)C2(C)C
Solution: 0.07

* * *

Collected Tmax values appear next to each entry.
conditions_used: mouse oral PK, female Balb/c, 40 mg/kg single dose, plasma
Be sure to follow the number with its unit.

Exercise: I'd like to know its Tmax. The molecule in question is C[C@@H](OC(C)(C)C)[C@H](NC(=O)OCc1ccccc1)C(=O)N[C@@H](CC1CCCCC1)C(=O)N[C@H](C=O)C[C@@H]1CCNC1=O [Compound C-2-b]
Solution: 0.25 h

* * *

Tested on: SARS-CoV-2
test_details: Anti-viral in vitro PRNT assay in Vero E6 cells
Format: cell-based
conditions_used: Vero E6 cells, 1000 pfu, 3 days, plaque reduction
measure_name: anti-SARS-CoV2 (PRNT) in Vero E6 EC50 (μM)

CC(C)C[C@H](NC(=O)C1CC1)C(=O)N1C[C@H]2[C@@H]([C@H]1C(=O)N[C@H](C#N)C[C@@H]1CCNC1=O)C2(C)C :: Inactive
CC(C)C[C@H](NC(=O)c1cc2ccccc2[nH]1)C(=O)N[C@@H](C[C@@H]1CCNC1=O)C(=O)CO :: Inactive

* * *

Type: in vitro ADME
conditions_used: extraction ratio, compound at 1 uM, mouse liver microsomes 0.5 mg/mL
Collected Liver Microsomal Stability (ER) Mouse values appear next to each entry.

Here is how some compounds turned out for Liver Microsomal Stability (ER) Mouse.
COc1cccc2[nH]c(C(=O)N[C@@H](CC(C)C)C(=O)N[C@H](C#N)C[C@@H]3CCNC3=O)cc12 :: 0.11
CC(C)C[C@H](NC(=O)c1cc2ccccc2[nH]1)C(=O)N1C[C@H]2[C@@H]([C@H]1C(=O)N[C@H](C#N)C[C@@H]1CCNC1=O)C2(C)C :: 0.16
Cc1cccc2[nH]c(C(=O)N[C@@H](CC(C)C)C(=O)N[C@@H](C[C@@H]3CCNC3=O)C(=O)CO)cc12 :: 0.44
CC(C)C[C@H](NC(=O)C1CC1)C(=O)N1C[C@H]2[C@@H]([C@H]1C(=O)N[C@H](C#N)C[C@@H]1CCNC1=O)C2(C)C :: 0.27
CC(C)C[C@H](NC(=O)[C@@H](NC(=O)C(F)F)[C@@H](C)OC(C)(C)C)C(=O)N[C@H](C#N)C[C@@H]1CCNC1=O :: 0.68
CC(C)C[C@H](NC(=O)C(F)F)C(=O)N1C[C@H]2[C@@H]([C@H]1C(=O)N[C@H](C=O)C[C@@H]1CCNC1=O)C2(C)C :: 0.24
CC(C)[C@H](NC(=O)[C@@H]1[C@@H]2[C@H](CN1C(=O)[C@@H](NC(=O)C(F)(F)F)C(C)(C)C)C2(C)C)C(=O)CCl :: 0.50
C=CC(=O)N[C@H](C[C@@H]1CCNC1=O)NC(=O)[C@H](CC(C)C)NC(=O)OCc1ccccc1 :: 0.07
Cc1cccc2[nH]c(C(=O)N[C@@H](CC(C)C)C(=O)N[C@@H](C[C@@H]3CCNC3=O)C(=O)CCl)cc12 :: 0.81
CC(C)C[C@@H](NC(=O)c1cc2c(F)cccc2[nH]1)C(=O)N[C@H](C#N)C[C@@H]1CCNC1=O :: 0.37

Exercise: I'd like to know its Liver Microsomal Stability (ER) Mouse. The compound in question is CC(C)C[C@H](NC(=O)c1cc2ccccc2[nH]1)C(=O)N1C[C@H]2[C@@H]([C@H]1C(=O)N[C@@H](C[C@@H]1CCNC1=O)C(=O)CO)C2(C)C
Solution: 0.25

Exercise: I'd like to know its Liver Microsomal Stability (ER) Mouse. The compound in question is CC(C)C(=O)N[C@H](C(=O)N1C[C@H]2[C@@H]([C@H]1C(=O)N[C@H](C#N)C[C@@H]1CCNC1=O)C2(C)C)C1CC1
Solution: 0.10

Exercise: I'd like to know its Liver Microsomal Stability (ER) Mouse. The compound in question is CC(C)C[C@H](NC(=O)OCc1ccccc1)C(=O)N[C@H](C#N)C[C@@H]1CCNC1=O
Solution: 0.00
